Where do these numbers come from? They come from ChEMBL document CHEMBL1126749.

target: Angiotensin II receptor (Oryctolagus cuniculus); test: Antagonism of angiotensin-II mediated contraction of rabbit aortic rings expressed as pA2 (in vitro)
property: pA2
Give the figure by itself; no unit, no explanation.

- CCCCc1nnc(O)n1Cc1ccc(-c2ccccc2C(=O)O)cc1: 5.5

Recorded pA2 (molecule CCCCc1nn(CC(OCc2ccccc2)c2ccccc2)c(=O)n1Cc1ccc(-c2ccccc2-c2nn[nH]n2)cc1 (stereo not drawn) ): 7.7

Recorded pA2 (molecule CCCCc1nn(CCC)c(=O)n1Cc1ccc(-c2ccccc2-c2nn[nH]n2)cc1 ): 8.2

---

Biological target: Type-1 angiotensin II receptor B (Rattus norvegicus, UniProt P29089)
Sequence (P29089 whole entry): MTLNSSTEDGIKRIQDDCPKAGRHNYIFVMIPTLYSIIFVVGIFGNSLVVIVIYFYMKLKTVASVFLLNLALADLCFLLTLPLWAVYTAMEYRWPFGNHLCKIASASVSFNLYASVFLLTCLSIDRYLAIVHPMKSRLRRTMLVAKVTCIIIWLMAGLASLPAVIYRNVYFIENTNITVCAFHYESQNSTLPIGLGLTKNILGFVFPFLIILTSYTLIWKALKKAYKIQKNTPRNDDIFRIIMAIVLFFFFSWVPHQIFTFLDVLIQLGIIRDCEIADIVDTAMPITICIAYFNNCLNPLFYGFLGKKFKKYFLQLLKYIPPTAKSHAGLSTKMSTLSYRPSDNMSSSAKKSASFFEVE
Assay: Inhibition of [125I]angiotensin-II binding to the angiotensin II receptor type 1 in rat uterine membranes
Class assignment keyed on IC50, ranges low interval: < 20 nM; middle interval: ≥ 20 nM and < 40 nM; high interval: ≥ 40 nM

Known results for compounds:
• CCCCc1nn(CCc2ccccc2)c(=O)n1Cc1ccc(-c2ccccc2-c2nn[nH]n2)cc1 = low interval
• CCCCc1nn(CCC2CCCCC2)c(=O)n1Cc1ccc(-c2ccccc2-c2nn[nH]n2)cc1 = low interval
• CCCCc1nn(CCCCC(=O)OC)c(=O)n1Cc1ccc(-c2ccccc2-c2nn[nH]n2)cc1 = low interval

Query block: Just checking, what class would you give CCCCc1nn(CC(OCCC)c2ccccc2)c(=O)n1Cc1ccc(-c2ccccc2-c2nn[nH]n2)cc1 (stereo not drawn) here?
Result block: high interval

Query block: Just checking, what class would you give CCCCCCCCn1nc(CCCC)n(Cc2ccc(-c3ccccc3-c3nn[nH]n3)cc2)c1=O here?
Result block: high interval

Query block: Just checking, what class would you give CCCCc1nn(CCC(C)CC(C)(C)C)c(=O)n1Cc1ccc(-c2ccccc2-c2nn[nH]n2)cc1 (stereo not drawn) here?
Result block: middle interval

Query block: Just checking, what class would you give CCCCc1nn(C(Cc2ccccc2)C(=O)c2ccccc2)c(=O)n1Cc1ccc(-c2ccccc2-c2nn[nH]n2)cc1 (stereo not drawn) here?
Result block: high interval

Query block: Just checking, what class would you give CCCCc1nn(CC(OCC(=O)O)c2ccccc2)c(=O)n1Cc1ccc(-c2ccccc2-c2nn[nH]n2)cc1 (stereo not drawn) here?
Result block: middle interval

Query block: Just checking, what class would you give CCCCc1nn(CC(OCC(=O)OCC)c2ccccc2)c(=O)n1Cc1ccc(-c2ccccc2-c2nn[nH]n2)cc1 (stereo not drawn) here?
Result block: high interval

Query block: Just checking, what class would you give CCCCc1nn(CC(=O)c2cc(OC)ccc2OC)c(=O)n1Cc1ccc(-c2ccccc2-c2nn[nH]n2)cc1 here?
Result block: middle interval

Query block: Just checking, what class would you give CCCCc1nn(CC2CC2)c(=O)n1Cc1ccc(-c2ccccc2-c2nn[nH]n2)cc1 here?
Result block: low interval

Query block: Just checking, what class would you give CCCCc1nn(C(C)(C)C(=O)c2ccccc2)c(=O)n1Cc1ccc(-c2ccccc2-c2nn[nH]n2)cc1 here?
Result block: high interval

Query block: Just checking, what class would you give CCCCc1nn(CC(OCC)c2ccccc2)c(=O)n1Cc1ccc(-c2ccccc2-c2nn[nH]n2)cc1 (stereo not drawn) here?
Result block: low interval

Query block: Just checking, what class would you give CCCCc1nn(CC(OCc2ccccc2)c2ccccc2)c(=O)n1Cc1ccc(-c2ccccc2-c2nn[nH]n2)cc1 (stereo not drawn) here?
Result block: high interval

Query block: Just checking, what class would you give CCCCc1nn(CCCCCC(=O)OCC)c(=O)n1Cc1ccc(-c2ccccc2-c2nn[nH]n2)cc1 here?
Result block: low interval

Query block: Just checking, what class would you give CCCCc1nn(CCCc2ccccc2)c(=O)n1Cc1ccc(-c2ccccc2-c2nn[nH]n2)cc1 here?
Result block: low interval

Query block: Just checking, what class would you give CCCCc1nn(CCC)c(=O)n1Cc1ccc(-c2ccccc2-c2nn[nH]n2)cc1 here?
Result block: low interval

Query block: Just checking, what class would you give CCCCc1nn(CCCCCC(=O)O)c(=O)n1Cc1ccc(-c2ccccc2-c2nn[nH]n2)cc1 here?
Result block: low interval
